# System: Group II/III metabotropic glutamate receptors (mGluRs)
# test_summary: Cyclic AMP assay (forskolin-induced cyclic AMP accumulation in cortical slices)
# Type: cell-based, Sprague Dawley rat
# setup_conditions: inhibits the glutamate-caused decrease in forskolin-induced cyclic AMP accumulation; rat cortical slices
property_label: Group II/III Antagonist

For NC(C(=O)O)C1CCCC12CC2C(=O)O (stereo not drawn) [Compound 27, Spiro[4,2]heptane-1-carboxy-4-glycine] , what is its reported Group II/III Antagonist?
Yes

Could you share which Group II/III Antagonist value was measured for N[C@@]1(C(=O)O)CCCC12CC2C(=O)O (stereo partly drawn) [Compound 7] ?
Yes

What value of Group II/III Antagonist has been reported for the following molecule? NC1(C(=O)O)CC2(CC2C(=O)O)c2ccccc21 (stereo not drawn) [Compound 22]
No

# Group II/III Antagonist lookup, item N[C@]1(C(=O)O)CCCC12CC2C(=O)O (stereo partly drawn) [Compound 8]
yes

---
So what does the record say about Group II/III Antagonist for NC1(C(=O)O)CCCC12C(C(=O)O)C2c1ccccc1 (stereo not drawn) [Compound 16] ?
No

Query: Group II/III Antagonist; subject: NC(C(=O)O)C1CCCC12CC2C(=O)O (stereo not drawn) [Compound 26, Spiro[4,2]heptane-1-carboxy-4-glycine]
Yes

====

# Test system: Group I metabotropic glutamate receptors (mGluRs)
# test_summary: Phosphatidylinositol assay (inositol phosphate accumulation in neonatal tissue slices)
# Type: cell-based, Sprague Dawley rat
# setup_conditions: inhibits inositol phosphate accumulation induced by ACPD; neonatal rat slices, 45 minutes
property_label: Group I Antagonist

Below, 4 molecules whose answers are already recorded.
Entry N[C@]1(C(=O)O)CCCC12CC2C(=O)O (stereo partly drawn) , system Group I metabotropic glutamate receptors (mGluRs): what Group I Antagonist was measured?
Yes

State its Group I Antagonist on Group I metabotropic glutamate receptors (mGluRs): NC(C(=O)O)C1CCCC12CC2C(=O)O (stereo not drawn) [Compound 27, Spiro[4,2]heptane-1-carboxy-4-glycine]
Yes

Query Group I Antagonist on Group I metabotropic glutamate receptors (mGluRs) for NC1(C(=O)O)CC2(CC2C(=O)O)c2ccccc21 (stereo not drawn)
No

Lab note: need Group I Antagonist for NC(C(=O)O)C1CCCC12CC2C(=O)O (stereo not drawn) [Compound 26, Spiro[4,2]heptane-1-carboxy-4-glycine] on Group I metabotropic glutamate receptors (mGluRs), anyone have it?
Yes

New cases:
Form entry - test system: Group I metabotropic glutamate receptors (mGluRs); read-out: Group I Antagonist; molecule: NC1(C(=O)O)CCCC12C(C(=O)O)C2c1ccccc1 (stereo not drawn)
Yes

// map N[C@@]1(C(=O)O)CCCC12CC2C(=O)O (stereo partly drawn) to recorded Group I Antagonist (system: Group I metabotropic glutamate receptors (mGluRs))
Yes

====

# Tested on: Group II/III metabotropic glutamate receptors (mGluRs)
# test_summary: Cyclic AMP assay (forskolin-induced cyclic AMP accumulation in cortical slices)
# Assay type: cell-based, Sprague Dawley rat
# setup_conditions: inhibits forskolin-induced cyclic AMP accumulation; rat cortical slices
property_label: Group II/III Agonist

Consider the reported Group II/III Agonist for these molecules:
Param readout = Group II/III Agonist; param system = Group II/III metabotropic glutamate receptors (mGluRs); param query = NC(C(=O)O)C1CCCC12CC2C(=O)O (stereo not drawn) [Compound 26, Spiro[4,2]heptane-1-carboxy-4-glycine] ; response: value
Yes

Recorded Group II/III Agonist for N[C@@]1(C(=O)O)CCCC12CC2C(=O)O (stereo partly drawn) with Group II/III metabotropic glutamate receptors (mGluRs), please?
No

Group II/III Agonist of NC(C(=O)O)C1CCCC12CC2C(=O)O (stereo not drawn) [Compound 27, Spiro[4,2]heptane-1-carboxy-4-glycine] on Group II/III metabotropic glutamate receptors (mGluRs)?
Yes

Any idea what Group II/III Agonist came out for N[C@]1(C(=O)O)CCCC12CC2C(=O)O (stereo partly drawn) on Group II/III metabotropic glutamate receptors (mGluRs)?
No

Short answer please: Group II/III Agonist, Group II/III metabotropic glutamate receptors (mGluRs), entry NC1(C(=O)O)CC2(CC2C(=O)O)c2ccccc21 (stereo not drawn)
No

Continuing:
What reported Group II/III Agonist corresponds to NC1(C(=O)O)CCCC12C(C(=O)O)C2c1ccccc1 (stereo not drawn) on Group II/III metabotropic glutamate receptors (mGluRs)?
Yes

Reference source: patent US20040077599A1
